Attribution: patent US7674823B2

measured-quantity: melting point

Inquiry: Returns the measured melting point for the input compound. Input: CC(O)CNc1cc(=O)n2ccc3ccccc3c2n1 (stereo not drawn) [Compound 20]
Reply text: 199 to 200 °C

Inquiry: Returns the measured melting point for the input compound. Input: O=c1cc(N2CCOCC2)oc2ccc(Br)cc12 [Compound 308, 6-Bromo-2-morpholin-4-yl-chromen-4-one]
Reply text: 147 to 149 °C

Inquiry: Returns the measured melting point for the input compound. Input: O=c1cc(N2CCOCC2)oc2cc(OCc3ccc(Br)cc3)ccc12 [Compound 416]
Reply text: 221 to 222 °C

###

- Tested on: ATM protein
- run-description: ATM inhibition assay (immunoprecipitated ATM, GSTp53N66 substrate)
- Type: biochemical, human
- condition-parameters: selectivity ratio from the IC50s for ATM and DNA-PK
measured-quantity: Δ(DNA-PK/ATM)

Inquiry: Returns the measured Δ(DNA-PK/ATM) for the input compound. Input: O=c1cc(N2CCOCC2)oc2cc3ccccc3cc12 [Compound 301, 2-(morpholin-4-yl)-benzo[g]chromen-4-one]
Reply text: >125

Inquiry: Returns the measured Δ(DNA-PK/ATM) for the input compound. Input: O=C(Oc1ccc2c(=O)cc(N3CCOCC3)oc2c1)c1ccccc1
Reply text: >33

Inquiry: Returns the measured Δ(DNA-PK/ATM) for the input compound. Input: COc1cccc(-c2cc(=O)cc(N3CCOCC3)o2)c1
Reply text: >125

Inquiry: Returns the measured Δ(DNA-PK/ATM) for the input compound. Input: O=c1cc(N2CCOCC2)oc2cc(OCc3ccccc3)ccc12
Reply text: >154

Inquiry: Returns the measured Δ(DNA-PK/ATM) for the input compound. Input: COc1ccc(-c2cc(=O)cc(N3CCOCC3)o2)cc1
Reply text: >286

Inquiry: Returns the measured Δ(DNA-PK/ATM) for the input compound. Input: O=c1cc(-c2ccccc2)oc(N2CCOCC2)c1
Reply text: >63

Inquiry: Returns the measured Δ(DNA-PK/ATM) for the input compound. Input: O=c1cc(N2CCOCC2)oc2cc(OCc3ccc(Br)cc3)ccc12
Reply text: >167

Inquiry: Returns the measured Δ(DNA-PK/ATM) for the input compound. Input: CC1CN(c2cc(=O)c3ccc4ccccc4c3o2)CCO1 (stereo not drawn)
Reply text: >333

Inquiry: Returns the measured Δ(DNA-PK/ATM) for the input compound. Input: COc1ccccc1-c1cc(=O)cc(N2CCOCC2)o1
Reply text: 80
